Data provenance is patent US20210300940A1.

- Measurement target: TLR7 (Homo sapiens)
- Sequence (Q9NYK1 27-1049): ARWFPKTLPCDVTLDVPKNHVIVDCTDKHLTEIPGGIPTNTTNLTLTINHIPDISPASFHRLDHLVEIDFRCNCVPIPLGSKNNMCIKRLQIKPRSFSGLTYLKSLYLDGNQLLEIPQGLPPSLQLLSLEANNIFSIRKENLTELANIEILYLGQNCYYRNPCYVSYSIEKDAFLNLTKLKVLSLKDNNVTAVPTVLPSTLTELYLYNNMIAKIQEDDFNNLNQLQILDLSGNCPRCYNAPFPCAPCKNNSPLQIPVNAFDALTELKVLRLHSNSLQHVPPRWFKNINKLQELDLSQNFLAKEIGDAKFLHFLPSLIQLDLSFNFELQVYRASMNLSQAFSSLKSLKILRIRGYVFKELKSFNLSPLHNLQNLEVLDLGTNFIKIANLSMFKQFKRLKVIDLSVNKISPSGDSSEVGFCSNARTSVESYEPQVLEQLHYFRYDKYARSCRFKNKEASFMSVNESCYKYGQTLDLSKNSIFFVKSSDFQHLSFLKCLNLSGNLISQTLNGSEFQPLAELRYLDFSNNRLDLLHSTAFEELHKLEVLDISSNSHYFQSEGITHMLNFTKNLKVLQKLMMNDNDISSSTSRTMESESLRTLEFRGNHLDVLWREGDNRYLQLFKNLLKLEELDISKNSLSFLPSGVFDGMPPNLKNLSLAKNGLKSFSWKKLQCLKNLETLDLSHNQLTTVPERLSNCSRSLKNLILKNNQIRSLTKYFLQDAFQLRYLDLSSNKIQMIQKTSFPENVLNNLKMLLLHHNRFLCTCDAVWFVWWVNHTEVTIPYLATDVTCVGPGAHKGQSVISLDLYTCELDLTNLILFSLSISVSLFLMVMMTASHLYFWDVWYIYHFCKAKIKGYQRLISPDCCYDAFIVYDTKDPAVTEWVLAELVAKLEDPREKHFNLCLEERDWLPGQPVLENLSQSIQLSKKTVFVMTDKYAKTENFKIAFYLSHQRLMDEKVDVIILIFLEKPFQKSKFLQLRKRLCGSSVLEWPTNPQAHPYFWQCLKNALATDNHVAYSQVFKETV
- Experiment: HEK/293 TLR7 Cell Assay
- Setup conditions: TLR7/NFKb HEK cells, R848 agonist 10 uM final concentration, Steady-Glo readout; read-out: TLR7 potency
Endpoint label: IC50

* C[C@@H]1CN(c2cnc(C#N)c3ncccc23)C[C@H](Cn2cc(C(=O)O)cn2)O1 | < 75 nM
* C[C@@H]1CN(c2ccc(C#N)c3nccnc23)C[C@H](C(=O)N[C@@H](CO)C(=O)O)O1 | 75 to 150 nM
* C[C@@H]1CN(c2ccc(C#N)c3nccnc23)C[C@H](C(=O)NC2CCNC3(CCC3)C2)O1 (stereo partly shown) | < 75 nM
* C[C@@H]1CN(c2ccc(C#N)c3nccnc23)C[C@H](C(=O)NCCN2CCS(=O)(=O)CC2)O1 | < 75 nM
* C[C@@H]1CN(c2ccc(C#N)c3nccnc23)C[C@H](C(=O)NC2CCNCC2(F)F)O1 (stereo partly shown) | < 75 nM

For each entry beneath this line, provide reported IC50.
1. C[C@@H]1CN(c2ccc(C#N)c3nccnc23)C[C@H](c2nc(C3CC3)no2)O1 (racemic)
2. N#Cc1ccc(N2C[C@H](n3cccn3)C[C@H](C(F)(F)F)C2)c2nccnc12 (racemic)

1. 75 to 150 nM
2. > 150 nM
